// provenance: paper PMC2728291

We begin with a simple list: items and their reported pKi.
target: TEM-1 β-lactamase (UniProt P62593 24-286); assay: enzyme inhibition assay
Sequence (P62593 24-286): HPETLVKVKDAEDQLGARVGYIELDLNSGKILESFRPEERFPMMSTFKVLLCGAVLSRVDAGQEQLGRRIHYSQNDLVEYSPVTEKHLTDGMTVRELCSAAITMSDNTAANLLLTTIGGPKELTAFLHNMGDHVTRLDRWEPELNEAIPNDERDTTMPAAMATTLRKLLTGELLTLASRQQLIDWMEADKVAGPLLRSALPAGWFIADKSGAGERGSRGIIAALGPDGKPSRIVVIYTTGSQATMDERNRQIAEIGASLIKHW
Please express pKi as -log10 of the molar concentration.

Sample answers from the record:
- BINDER: "BLIP Phe142Gly mutant (natural protein) AGVMTGAKFTQIQFGMTRQQVLDIAGAENCETGGSFGDSIHCRGHAAGDYYAYATFGFTSAAADAKVDSKSQEKLLAPSAPTLTLAKFNQVTVGMTRAQVLATVGQGSCTTWSEYYPAYPSTAGVTLSLSCFDVDGYSSTGGYRGSAHLWFTDGVLQGKRQWDLV"
  pKi: 7.92
- BINDER: "BLIP Glu31Gln mutant (natural protein) AGVMTGAKFTQIQFGMTRQQVLDIAGAENCQTGGSFGDSIHCRGHAAGDYYAYATFGFTSAAADAKVDSKSQEKLLAPSAPTLTLAKFNQVTVGMTRAQVLATVGQGSCTTWSEYYPAYPSTAGVTLSLSCFDVDGYSSTGFYRGSAHLWFTDGVLQGKRQWDLV"
  pKi: 8.85

Attention now turns to another entry.
## Task Bench note: what pKi did BLIP Trp112Arg mutant (natural protein) AGVMTGAKFTQIQFGMTRQQVLDIAGAENCETGGSFGDSIHCRGHAAGDYYAYATFGFTSAAADAKVDSKSQEKLLAPSAPTLTLAKFNQVTVGMTRAQVLATVGQGSCTTRSEYYPAYPSTAGVTLSLSCFDVDGYSSTGFYRGSAHLWFTDGVLQGKRQWDLV show?
## Result 8.41
